Target: T1, recombinant human IL-6 (human, UniProt P05231 30-212)
T1 construct: Flowed in solution over the captured antibodies
T1 sequence (P05231 30-212 limits assumed): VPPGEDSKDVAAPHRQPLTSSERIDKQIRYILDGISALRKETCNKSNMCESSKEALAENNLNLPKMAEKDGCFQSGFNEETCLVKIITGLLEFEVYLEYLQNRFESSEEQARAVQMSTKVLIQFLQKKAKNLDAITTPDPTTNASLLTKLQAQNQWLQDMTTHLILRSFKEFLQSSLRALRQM
Experiment: SPR (Biacore), supernatant IgG on Protein A, 25 C
Listed here are binders together with their documented koff.

binder: anti-IL-6 antibody, heavy chain F27V, light chain WT (antibody, IgG1, V domains shown, Full IgG1 tested; V domains derived as in m2) VH: EVQLVESGGGLVQPGGSLRLSCAASGVTFSPFAMSWVRQAPGKGLEWVAKISPGGSWTYYSDTVTGRFTFSLDTSKSTAYLQMNSLRAEDTAVYYCARQLWGYYALDIWGQGTLVTVSS VL: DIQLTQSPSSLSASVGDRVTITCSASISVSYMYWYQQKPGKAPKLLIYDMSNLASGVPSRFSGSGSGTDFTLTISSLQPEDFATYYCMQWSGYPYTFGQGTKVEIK
endpoint_name: koff
result: 0.000208 s⁻¹

Any idea what koff was measured for anti-IL-6 antibody, heavy chain R98G, light chain WT (antibody, IgG1, V domains shown, Full IgG1 tested; V domains derived as in m2) VH: EVQLVESGGGLVQPGGSLRLSCAASGFTFSPFAMSWVRQAPGKGLEWVAKISPGGSWTYYSDTVTGRFTFSLDTSKSTAYLQMNSLRAEDTAVYYCAGQLWGYYALDIWGQGTLVTVSS VL: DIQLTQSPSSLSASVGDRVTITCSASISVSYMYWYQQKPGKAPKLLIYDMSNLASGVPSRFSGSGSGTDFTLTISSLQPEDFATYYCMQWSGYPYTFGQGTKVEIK ?
0.000251 s⁻¹

Any idea what koff was measured for anti-IL-6 antibody, heavy chain I108F, light chain WT (antibody, IgG1, V domains shown, Full IgG1 tested; V domains derived as in m2) VH: EVQLVESGGGLVQPGGSLRLSCAASGFTFSPFAMSWVRQAPGKGLEWVAKISPGGSWTYYSDTVTGRFTFSLDTSKSTAYLQMNSLRAEDTAVYYCARQLWGYYALDFWGQGTLVTVSS VL: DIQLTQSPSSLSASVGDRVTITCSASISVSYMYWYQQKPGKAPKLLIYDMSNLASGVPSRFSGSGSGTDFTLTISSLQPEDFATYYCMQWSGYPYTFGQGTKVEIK ?
0.000146 s⁻¹
